assay: Cytotoxicity on macrophages, Blue Trypan; type: cell-based, human
READOUT LABEL: CC50

*Q* Report CC50, nothing else, for this compound: CCCCc1oc2ccc(NS(C)(=O)=O)cc2c1C(=O)c1ccc(OCCCN(CCCC)CCCC)cc1
*A* > 12.5 µM

----------
test system: intramacrophagic amastigotes of L. donovani; assay: Growth inhibition of intramacrophagic amastigotes of L. donovani in RAW 264.7; format: cell-based, Leishmania donovani; conditions: Leishmania donovani, RAW264.7, 72 hours
READOUT LABEL: pIC50
One number for each entry, as −log10 of the molar value.

CCCCCCCCCCCCCCCCOP(=O)([O-])OCC[N+](C)(C)C 6.06

*Q* Report pIC50, nothing else, for this compound: CCCCc1oc2ccc(NS(C)(=O)=O)cc2c1C(=O)c1ccc(OCCCN(CCCC)CCCC)cc1
*A* 5.78

----------
test system: Intramacrophagic amastigotes of L. amazonensis; assay: Growth inhibition of intramacrophagic amastigotes of L. amazonensis in RAW 264.7 (SYBRGREEN, qPCR); type: cell-based, Leishmania amazonensis; conditions: Leishmania amazonensis, RAW264.7, RAW 264.7, 72 hours of contact
Could you please report measured pIC50 for the items listed next?
One number for each entry, as −log10 of the molar value.

CCCCc1oc2ccc(NS(C)(=O)=O)cc2c1C(=O)c1ccc(OCCCN(CCCC)CCCC)cc1 6.30

*Q* Report pIC50, nothing else, for this compound: CCCCCCCCCCCCCCCCOP(=O)([O-])OCC[N+](C)(C)C
*A* 5.73

----------
Could you please report measured pIC50 for the items listed next?
system: Axenic amastigotes of L. amazonensis; assay: Growth inhibition of axenic amastigotes of L. amazonensis (SYBRGREEN DNA quantification); assay type: cell-based, Leishmania amazonensis; conditions: Leishmania amazonensis, 72 hours of contact
Give bare numbers, as −log10 of the molar value.

CCCCCCCCCCCCCCCCOP(=O)([O-])OCC[N+](C)(C)C 6.05

# input for lookup
*Q* Provide pIC50, system Axenic amastigotes of L. amazonensis, entry CCCCc1oc2ccc(NS(C)(=O)=O)cc2c1C(=O)c1ccc(OCCCN(CCCC)CCCC)cc1
*A* 6.47

----------
test system: L. major's axenic amastigotes; experiment: Growth inhibition of axenic amastigotes of L. major; assay type: cell-based, Leishmania major; conditions: Leishmania major, 72 hours
READOUT LABEL: IC50 (µM)
Numbers only, in µM.

CCCCc1oc2ccc(NS(C)(=O)=O)cc2c1C(=O)c1ccc(OCCCN(CCCC)CCCC)cc1 2.55

# input for lookup
*Q* Report IC50, nothing else, for this compound: CCCCCCCCCCCCCCCCOP(=O)([O-])OCC[N+](C)(C)C
*A* 5.57
